molecular target: VEGF165 (recombinant human vascular endothelial growth factor, 165 aa form) (Homo sapiens, UniProt P15692-4 P15692-4:27-191); experiment: filter; PBS, 0.01% HSA, 37 C; Kd1, X1 0.54, Kd2 181 nM; conditions: tags: gift from N. Ferrara, Genentech; chain copies: 2 (dimer, stated); label: 32P
Sequence (P15692 other isoform, or with tags, fused parts or gaps): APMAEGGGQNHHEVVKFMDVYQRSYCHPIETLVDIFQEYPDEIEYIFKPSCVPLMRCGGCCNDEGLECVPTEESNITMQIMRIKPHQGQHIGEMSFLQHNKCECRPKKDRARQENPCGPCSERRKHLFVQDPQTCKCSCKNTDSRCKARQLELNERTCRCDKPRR
endpoint: pKd
Keep in mind that pKd stands for -log10 of concentration in molar terms.

[Q] Identify measured pKd corresponding to GGAACGGUUCUGUGUGUGGACUAGCCGCGGCCGUU (ssRNA) [ligand 126t]
[A] 8.85
